# targetDesc: plasma purified human complement protein C3 (human) (UniProt P01024)
# Sequence (P01024 23-667, chain 1 of 2): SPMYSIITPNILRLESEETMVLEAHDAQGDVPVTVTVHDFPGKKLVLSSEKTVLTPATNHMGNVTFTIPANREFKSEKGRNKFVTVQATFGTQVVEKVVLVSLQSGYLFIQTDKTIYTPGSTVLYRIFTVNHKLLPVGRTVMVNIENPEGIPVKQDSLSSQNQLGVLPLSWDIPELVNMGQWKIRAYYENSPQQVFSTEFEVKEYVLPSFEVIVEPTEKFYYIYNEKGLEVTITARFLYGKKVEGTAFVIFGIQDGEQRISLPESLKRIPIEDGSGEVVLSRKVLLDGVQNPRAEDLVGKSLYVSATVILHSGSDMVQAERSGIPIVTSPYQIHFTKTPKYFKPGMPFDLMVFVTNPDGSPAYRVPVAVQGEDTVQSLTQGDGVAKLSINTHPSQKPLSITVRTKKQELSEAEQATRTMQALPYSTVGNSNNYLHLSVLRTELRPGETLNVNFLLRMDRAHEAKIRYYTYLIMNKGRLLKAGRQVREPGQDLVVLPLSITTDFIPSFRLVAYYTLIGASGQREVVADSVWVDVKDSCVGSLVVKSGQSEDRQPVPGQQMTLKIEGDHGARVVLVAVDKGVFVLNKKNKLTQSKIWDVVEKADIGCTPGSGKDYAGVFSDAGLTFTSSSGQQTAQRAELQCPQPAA
# Sequence (P01024 672-1663, chain 2 of 2): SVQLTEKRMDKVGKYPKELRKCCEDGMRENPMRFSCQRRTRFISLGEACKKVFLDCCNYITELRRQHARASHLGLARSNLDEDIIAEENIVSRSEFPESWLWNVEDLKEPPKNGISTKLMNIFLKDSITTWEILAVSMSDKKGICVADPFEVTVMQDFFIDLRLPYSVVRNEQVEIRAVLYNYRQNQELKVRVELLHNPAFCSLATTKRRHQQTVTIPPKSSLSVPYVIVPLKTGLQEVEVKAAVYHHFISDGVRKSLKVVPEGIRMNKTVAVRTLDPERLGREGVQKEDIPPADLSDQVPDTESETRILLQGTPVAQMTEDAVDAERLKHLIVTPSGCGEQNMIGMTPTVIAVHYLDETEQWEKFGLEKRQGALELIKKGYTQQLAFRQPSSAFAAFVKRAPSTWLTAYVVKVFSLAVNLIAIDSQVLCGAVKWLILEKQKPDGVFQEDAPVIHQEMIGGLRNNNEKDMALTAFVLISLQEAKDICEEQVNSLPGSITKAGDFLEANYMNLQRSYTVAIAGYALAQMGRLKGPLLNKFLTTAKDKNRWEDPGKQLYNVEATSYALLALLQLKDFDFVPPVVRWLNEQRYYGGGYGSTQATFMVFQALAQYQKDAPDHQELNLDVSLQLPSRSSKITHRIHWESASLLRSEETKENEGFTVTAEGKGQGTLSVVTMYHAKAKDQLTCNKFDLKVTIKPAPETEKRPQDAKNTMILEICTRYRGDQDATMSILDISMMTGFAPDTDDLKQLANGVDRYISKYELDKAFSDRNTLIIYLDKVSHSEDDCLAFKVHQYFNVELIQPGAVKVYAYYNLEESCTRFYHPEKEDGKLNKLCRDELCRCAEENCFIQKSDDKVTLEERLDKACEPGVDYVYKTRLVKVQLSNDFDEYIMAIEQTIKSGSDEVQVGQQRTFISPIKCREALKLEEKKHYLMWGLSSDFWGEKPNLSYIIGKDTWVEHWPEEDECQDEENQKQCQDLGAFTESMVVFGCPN
# testSummary: cell-based or functional assay
endpointLabel: EC50 of hC3 cleavage (nM)
Respond with the bare value in nM.

Task item: Form field: reported EC50 of hC3 cleavage of MTSP-1 H40R/I41H/F99L/C122S/G151K/Q192G (enzyme) VVGGTDADEGEWPWQVSLHALGQGRHCGASLISPNWLVSAAHCYIDDRGFRYSDPTQWTAFLGLHDQSQRSAPGVQERRLKRIISHPFFNDFTLDYDIALLELEKPAEYSSMVRPISLPDASHVFPAGKAIWVTGWGHTQYGGTKALILQKGEIRVINQTTCENLLPQQITPRMMCVGFLSGGVDSCGGDSGGPLSSVEADGRIFQAGVVSWGDGCAQRNKPGVYTRLPLFRDWIKENTGV
Reply: 1520

Task item: Form field: reported EC50 of hC3 cleavage of MTSP-1 I41T/D60bW/F60eH/F97D/ins97aV/T98P/F99L/C122S/G151N/Q175L/Q192G (enzyme) VVGGTDADEGEWPWQVSLHALGQGHTCGASLISPNWLVSAAHCYIDWRGHRYSDPTQWTAFLGLHDQSQRSAPGVQERRLKRIISHPFFNDDVPLDYDIALLELEKPAEYSSMVRPISLPDASHVFPAGKAIWVTGWGHTQYGGTNALILQKGEIRVINQTTCENLLPQLITPRMMCVGFLSGGVDSCGGDSGGPLSSVEADGRIFQAGVVSWGDGCAQRNKPGVYTRLPLFRDWIKENTGV
Reply: 3.1

Task item: Form field: reported EC50 of hC3 cleavage of MTSP-1 Q38H/H40P/I41A/F60eQ/Y60gW/F97T/ins97aE/T98G/F99L/C122S/Q175L/Q192D (enzyme) VVGGTDADEGEWPWQVSLHALGHGPACGASLISPNWLVSAAHCYIDDRGQRWSDPTQWTAFLGLHDQSQRSAPGVQERRLKRIISHPFFNDTEGLDYDIALLELEKPAEYSSMVRPISLPDASHVFPAGKAIWVTGWGHTQYGGTGALILQKGEIRVINQTTCENLLPQLITPRMMCVGFLSGGVDSCDGDSGGPLSSVEADGRIFQAGVVSWGDGCAQRNKPGVYTRLPLFRDWIKENTGV
Reply: 5.04

Task item: Form field: reported EC50 of hC3 cleavage of MTSP-1 Q38H/I41S/D60bY/D96Y/ins97aV/F97D/T98P/F99L/L106M/C122S/I136M/Q192G/Q209L/D217T (enzyme) VVGGTDADEGEWPWQVSLHALGHGHSCGASLISPNWLVSAAHCYIDYRGFRYSDPTQWTAFLGLHDQSQRSAPGVQERRLKRIISHPFFNYDVPLDYDIALMELEKPAEYSSMVRPISLPDASHVFPAGKAMWVTGWGHTQYGGTGALILQKGEIRVINQTTCENLLPQQITPRMMCVGFLSGGVDSCGGDSGGPLSSVEADGRIFLAGVVSWGTGCAQRNKPGVYTRLPLFRDWIKENTGV
Reply: 1.97

Task item: Form field: reported EC50 of hC3 cleavage of MTSP-1 Q38H/I41S/D60bT/F60eS/Y60gW/ins97aV/F97D/T98P/F99L/C122S/G151N/Q175A/Q192D (enzyme) VVGGTDADEGEWPWQVSLHALGHGHSCGASLISPNWLVSAAHCYIDTRGSRWSDPTQWTAFLGLHDQSQRSAPGVQERRLKRIISHPFFNDDVPLDYDIALLELEKPAEYSSMVRPISLPDASHVFPAGKAIWVTGWGHTQYGGTNALILQKGEIRVINQTTCENLLPQAITPRMMCVGFLSGGVDSCDGDSGGPLSSVEADGRIFQAGVVSWGDGCAQRNKPGVYTRLPLFRDWIKENTGV
Reply: 22.5
